Target: Human MPZ (Homo sapiens, UniProt P25189)
Construct: purchased Novoprotein (lysate); Bon Opus Biosciences (recombinant protein) NBL1 1321 (lysate); no catalogue number printed for the Bon Opus protein
Sequence (P25189 30-248): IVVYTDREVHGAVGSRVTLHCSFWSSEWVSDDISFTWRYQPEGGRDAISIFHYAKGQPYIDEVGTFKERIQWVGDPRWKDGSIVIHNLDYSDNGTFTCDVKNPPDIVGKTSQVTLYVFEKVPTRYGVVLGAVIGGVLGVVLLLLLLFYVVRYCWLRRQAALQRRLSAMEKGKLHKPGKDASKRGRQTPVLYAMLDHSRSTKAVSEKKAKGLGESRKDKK
Assay: Phage display library screening (Example 1, Power BI analysis), binding to Human MPZ
Conditions: R3 Human MPZ, NextGen sequencing count of phage sequences distinct for this target
Quick reference for Count among some substances
Keep it simple and answer with nothing but the number.

substance	tested system	Count
WPSISRP (R3 Human MPZ-binding peptide)	Human MPZ (Homo sapiens, UniProt P25189)	57

Query the reported Count for Human MPZ (Homo sapiens, UniProt P25189); item: DPITRLK (R3 Human MPZ-binding peptide) 92

Query the reported Count for Human MPZ (Homo sapiens, UniProt P25189); item: TESLFPH (R3 Human MPZ-binding peptide) 50

Query the reported Count for Human MPZ (Homo sapiens, UniProt P25189); item: SHLASRP (R3 Human MPZ-binding peptide) 97

Query the reported Count for Human MPZ (Homo sapiens, UniProt P25189); item: DRNSVFW (R3 Human MPZ-binding peptide) 50

Query the reported Count for Human MPZ (Homo sapiens, UniProt P25189); item: SHSPGNK (R3 Human MPZ-binding peptide) 67

---

Tested on: Human Myelin PLP
Assay: Phage display library screening (Example 2, Python script analysis), binding to Human Myelin PLP
Conditions: combined unique sequence count, Python/R script analysis
Quick reference for Count among some substances
Keep it simple and answer with nothing but the number.

Illustrative cases are given below, each with its answer.
substance	Count
VSASWMP (Myelin PLP-binding peptide)	27
LPSHASI (Myelin PLP-binding peptide)	26
VPGHISG (Myelin PLP-binding peptide)	27
TDVEMVP (Myelin PLP-binding peptide)	40
TNPWKPH (R3 Myelin PLP-binding peptide)	62
GPAAVII (Myelin PLP-binding peptide)	29
SGLHYAL (Myelin PLP-binding peptide)	32
NPNWRTI (R3 Myelin PLP-binding peptide)	34

Given LMQKPSI (Myelin PLP-binding peptide) , state its recorded Count. 29

Given VRTSMNH (Myelin PLP-binding peptide) , state its recorded Count. 28

Given WNTADRL (Myelin PLP-binding peptide) , state its recorded Count. 34

Given NVFSATP (Myelin PLP-binding peptide) , state its recorded Count. 31

Given AHQSSVT (Myelin PLP-binding peptide) , state its recorded Count. 42

Given EVLYPNN (Myelin PLP-binding peptide) , state its recorded Count. 27

Given SWDVLEL (Myelin PLP-binding peptide) , state its recorded Count. 31

Given SVVYQNS (Myelin PLP-binding peptide) , state its recorded Count. 26

Given HLHTRPT (Myelin PLP-binding peptide) , state its recorded Count. 27

Given QPNMLKP (Myelin PLP-binding peptide) , state its recorded Count. 33

Given FSTPTNV (Myelin PLP-binding peptide) , state its recorded Count. 29

Given DRHEGHR (Myelin PLP-binding peptide) , state its recorded Count. 26

---

Test system: Human MPZ
Assay: Phage display library screening (Example 2, Python script analysis), binding to Human MPZ
Conditions: combined unique sequence count, Python/R script analysis
test readout: Count

Illustrative cases are given below, each with its answer.
substance	Count
SAHSVVE (Human MPZ-binding peptide)	38
ADNVLRRALENI (Human MPZ-binding peptide)	49
YSSLTSN (Human MPZ-binding peptide)	38
GLWRHTM (Human MPZ-binding peptide)	40
YAPWRVF (Human MPZ-binding peptide)	37
NMSHSNR (Human MPZ-binding peptide)	46
CGEKIMSLC (Human MPZ-binding peptide)	40
GSWSSGF (Human MPZ-binding peptide)	52
CEDRQRSMC (Human MPZ-binding peptide)	40
YGQSITE (Human MPZ-binding peptide)	37

Query the reported Count for Human MPZ; item: EGHVWSEYTWGT (Human MPZ-binding peptide) 37

Query the reported Count for Human MPZ; item: SGHGAFR (Human MPZ-binding peptide) 42

---

Test system: excised human nerve tissue (or nerve extracts)
Test: Phage display library screening (Example 2), NEB tissue-binding peptides: nerve tissue and nerve extracts versus muscle
Settings: unique sequence count, tissue target: nerve extract, peptides not binding muscle extracts
test readout: Count Nerve Extract
Keep it simple and answer with nothing but the number.

Illustrative cases are given below, each with its answer.
residues	Count Nerve Extract
GWANSITYRNLY	26
DASQYPLVSGLW	16
TSAHHDRTLAGS	12
HSGAYTIQASYK	15
WPLKRFEQLPLK	14

Query the reported Count Nerve Extract for excised human nerve tissue (or nerve extracts); item: `SGWHLVMSMSIG` 12

Query the reported Count Nerve Extract for excised human nerve tissue (or nerve extracts); item: `VTDMLGIPKLHA` 28

Query the reported Count Nerve Extract for excised human nerve tissue (or nerve extracts); item: `GLTIMSSRHSLQ` 18

Query the reported Count Nerve Extract for excised human nerve tissue (or nerve extracts); item: `GTALNLQKDINK` 12

Query the reported Count Nerve Extract for excised human nerve tissue (or nerve extracts); item: `EPWQSRDKVIEE` 16

Query the reported Count Nerve Extract for excised human nerve tissue (or nerve extracts); item: `ALNHNGPVKTGL` 16

Query the reported Count Nerve Extract for excised human nerve tissue (or nerve extracts); item: `SGEYNLIKPNLL` 27
